# Tested on: EpCAM
# method_notes: Spot phage ELISA, EpCAM
# Type: binding, human
# measurement_setup: spot phage ELISA signal-to-noise on EpCAM
Where no end group is shown, it is not given here.
parameter: S/N
Give your answer as a number; write no unit.

Field: example entries. Status: answers known.
Asked: What does the data say about its S/N? Entry: GPTQSHYGQCGGLGYVGAMQCSGTTCQYVVRNFSQCLPGAS (disulfide (positions not given here)) [EpCAM CBD 28]
Given back: 16.2

Asked: What does the data say about its S/N? Entry: GPTQSHYGQCGGKGYFGIRCSGTTCQMVTYKPSQCLPGAS (disulfide (positions not given here)) [EpCAM CBD 33]
Given back: 15.1

Asked: What does the data say about its S/N? Entry: GCHRWGILCKQDSDCLAGCVCWQQGQCG (disulfide (positions not given here)) [EpCAM EET I-II 35]
Given back: 15

Asked: What does the data say about its S/N? Entry: GPTQSHYGQCGGYVGAIMCSGTTCQFQHVKQSQCLPGAS (disulfide (positions not given here)) [EpCAM CBD 38]
Given back: 12.9

Asked: What does the data say about its S/N? Entry: GPTQSHYGQCGGTGYVGAHVCSGTTCQFVYRDFSQCLPGAS (disulfide (positions not given here)) [EpCAM CBD 48]
Given back: 10.5

Asked: What does the data say about its S/N? Entry: GPTQSHYGQCGGGGYIGAMPCSGTTCQPVRIP*SQCLPGAS (disulfide) [EpCAM CBD 26]
Given back: 16.6

---
Asked: What does the data say about its S/N? Entry: GCPRILMRCKQDSDCHAFCG (disulfide (positions not given here)) [EpCAM EET I-II 30]
Given back: 17.5

---

# Tested on: EpCAM
# method_notes: Spot phage ELISA, EpCAM
# Type: binding, human
# measurement_setup: spot phage ELISA signal-to-noise on EpCAM
Where no end group is shown, it is not given here.
parameter: S/N
Give your answer as a number; write no unit.

Field: example entries. Status: answers known.
Asked: What does the data say about its S/N? Entry: GCMQWYIWCKQDSDCLAGCLYRSLPLD (disulfide (positions not given here)) [EpCAM EET I-II 9]
Given back: 21.9

Asked: What does the data say about its S/N? Entry: GPTQSHYGQCGGVGYHGAIQCSGTTCQEVKMTRSQCLPGAS (disulfide (positions not given here)) [EpCAM CBD 3]
Given back: 23.5

Asked: What does the data say about its S/N? Entry: GCPRILMRCKQDSDCRPVCG (disulfide (positions not given here)) [EpCAM EET I-II 34]
Given back: 15.7

Asked: What does the data say about its S/N? Entry: GPTQSHYGQCGGXGYNGXIVCSGTTCQYXRKSKSQCLPGAS (disulfide) [EpCAM CBD 61]
Given back: 8.8

Asked: What does the data say about its S/N? Entry: GPTQSHYGQCGGMGYKGIMCSGTTCQHAYIFRSQCLPGAS (disulfide (positions not given here)) [EpCAM CBD 49]
Given back: 10.2

Asked: What does the data say about its S/N? Entry: GPTQSHYGQCGGSGYPGHFLCSGTTCQTPRSWSSQCLPGAS (disulfide (positions not given here)) [EpCAM CBD 82]
Given back: 6.9

---
Asked: What does the data say about its S/N? Entry: GCSFPLIRCKQDSDCQLVVLWSKRFCG (disulfide (positions not given here)) [EpCAM EET I-II 2]
Given back: 23.6

These measurements were taken from paper PMC10977697.
